# phosphorylation enrichment annotations
# target_of_assay: Hck (UniProt P08631)
# Sequence (P08631 whole entry, looked up): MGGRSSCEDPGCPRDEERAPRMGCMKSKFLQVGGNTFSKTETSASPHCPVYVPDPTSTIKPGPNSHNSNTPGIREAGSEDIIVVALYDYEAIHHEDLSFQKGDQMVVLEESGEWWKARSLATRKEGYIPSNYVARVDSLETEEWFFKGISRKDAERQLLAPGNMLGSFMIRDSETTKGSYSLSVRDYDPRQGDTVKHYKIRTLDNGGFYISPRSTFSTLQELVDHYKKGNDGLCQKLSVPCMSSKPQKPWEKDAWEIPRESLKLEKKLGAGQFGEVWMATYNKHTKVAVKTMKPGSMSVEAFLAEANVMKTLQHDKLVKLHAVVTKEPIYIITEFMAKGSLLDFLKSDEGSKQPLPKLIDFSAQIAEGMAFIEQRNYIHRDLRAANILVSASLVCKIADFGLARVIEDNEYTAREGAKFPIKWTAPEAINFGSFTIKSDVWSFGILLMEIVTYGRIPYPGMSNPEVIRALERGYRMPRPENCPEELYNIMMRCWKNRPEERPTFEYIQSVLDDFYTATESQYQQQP
# test_method_notes: phosphorylation enrichment, bacterial display (enrichment ratio); higher = better substrate or ligand; peptides without Tyr show the background;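 further: 11-residue human phosphosite peptides and single-mutation variants displayed on the E. coli surface, counted by deep sequencing, each peptide's frequency after selection divided by its frequency in the unselected input library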;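 further: frequency after pTyr selection over input frequency; kinase dosed for 20-30% of maximal phosphorylation in three min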
Give a plain numeric answer without units written out.

// below: answered sequences
EREYKYGAHNY [OAT_Y50]    0.333
RAILNYIASKY [GSTA3_Y74]    0.594
FCRITYDIFPF [INTS13_Y67_M66T_YF]    2.62
SSTAMYSAAGR [PSMB1_Y8_P11A]    0.755
ESLRPYDVMDV [KCNQ2_Y562]    0.602
RPCVVYGGADI [DDX3X_Y301]    1.12

Now look at this one.
Query :: Could you share what phosphorylation enrichment was measured for NDPMEYAKQHG [ASS1_Y163_L160P] , tested on Hck (UniProt P08631)?
Result :: 0.467
